# experimental-target: human CRTH2 (Homo sapiens)
# Construct: expressed in transfected cells
# Sequence (Q9Y5Y4 1-395): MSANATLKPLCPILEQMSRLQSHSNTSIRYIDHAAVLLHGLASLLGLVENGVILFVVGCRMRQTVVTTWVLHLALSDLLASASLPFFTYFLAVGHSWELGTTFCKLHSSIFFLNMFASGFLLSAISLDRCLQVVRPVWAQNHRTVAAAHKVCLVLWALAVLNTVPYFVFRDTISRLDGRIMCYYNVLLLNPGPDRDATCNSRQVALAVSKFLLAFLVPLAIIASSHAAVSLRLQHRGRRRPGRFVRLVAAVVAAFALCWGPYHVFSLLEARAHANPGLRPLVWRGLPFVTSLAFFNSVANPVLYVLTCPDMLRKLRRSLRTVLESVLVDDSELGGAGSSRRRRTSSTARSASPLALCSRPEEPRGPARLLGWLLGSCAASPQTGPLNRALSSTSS
# assay-comment: [35S]GTPγS binding assay (SPA) on membranes from CHO-K1 cells stably expressing human CRTH2, stimulated with 60 nM DHK-PGD2
# Assay type: biochemical
# measurement-parameters: potency class symbols; Table 2; read-out: CRTH2 hGTPγS IC50
observed-property: IC50

Here's what some known entries look like.
molecule | experimental-target | IC50
CC(C)N(Cc1ccc(OCC(=O)O)c(-c2cccc(C(F)(F)F)c2)c1)S(=O)(=O)c1ccc(F)cc1 [Example 158] | human CRTH2 (Homo sapiens) | 1000 to 10000 nM
CN(Cc1ccc(OCC(=O)O)c(-c2cc(F)cc(C#N)c2)c1)S(=O)(=O)c1ccc(Cl)c(Cl)c1 [Example 38] | human CRTH2 (Homo sapiens) | < 100 nM
CN(Cc1ccc(OCC(=O)O)c(-c2cccc(OC(F)(F)F)c2)c1)S(=O)(=O)c1ccc(F)cc1 [Example 125] | human CRTH2 (Homo sapiens) | 100 to 1000 nM
CN(Cc1cc(-c2cccc(C#N)c2)c(OCC(=O)O)cc1Cl)S(=O)(=O)c1ccc(F)cc1 [Example 49] | human CRTH2 (Homo sapiens) | < 100 nM
CCS(=O)(=O)c1cccc(-c2cc(CN(C)S(=O)(=O)c3ccc(F)c(F)c3)ccc2OCC(=O)O)c1 [Example 58] | human CRTH2 (Homo sapiens) | < 100 nM

Required: IC50, one value per molecule below.
1. CN(Cc1ccc(OCC(=O)O)c(-c2cccc(C#N)c2)c1)S(=O)(=O)c1cc(F)cc(F)c1 [Example 97]
2. CN(Cc1ccc(OCC(=O)O)c(-c2cc(F)cc(C#N)c2)c1)S(=O)(=O)c1ccc(F)cc1 [Example 64]

["< 100 nM", "< 100 nM"]

Required: IC50, one value per molecule below.
1. CN(Cc1ccc(OCC(=O)O)c(-c2cccnc2)c1)S(=O)(=O)c1ccc(F)cc1 [Example 147]
2. CN(Cc1ccc(OCC(=O)O)c(-c2cc(C(F)(F)F)ccn2)c1)S(=O)(=O)c1ccc(F)cc1 [Example 168]

1. 100 to 1000 nM
2. 1000 to 10000 nM

----------
# experimental-target: human CRTH2 (Homo sapiens, UniProt Q9Y5Y4)
# Construct: expressed in transfected cells
# assay-comment: [35S]GTPγS binding assay (SPA) on membranes from CHO-K1 cells stably expressing human CRTH2, stimulated with 60 nM DHK-PGD2
# Type: biochemical
# measurement-parameters: potency class symbols; Table 2; read-out: CRTH2 hGTPγS IC50
pIC50: −log10 of the molar value.
observed-property: pIC50

query-smiles | pIC50
CN(Cc1ccc(OCC(=O)O)c(-c2ccc(S(C)(=O)=O)cc2)c1)S(=O)(=O)c1ccc(F)cc1 | 6.00 to 7.00
CC(C)N(Cc1ccc(OCC(=O)O)c(-c2cccc(C(F)(F)F)c2)c1)S(=O)(=O)c1cc(F)cc(F)c1 | 5.00 to 6.00
CC(C)c1cccc(-c2cc(CN(C)S(=O)(=O)c3ccc(F)cc3)ccc2OCC(=O)O)c1 | 6.00 to 7.00

Required: pIC50, one value per compound below.
1. CN(Cc1ccc(OCC(=O)O)c(-c2cccc(S(C)(=O)=O)c2)c1)S(=O)(=O)c1ccc(F)cc1
2. CN(Cc1ccc(OCC(=O)O)c(-c2cc(F)cc(C#N)c2)c1)S(=O)(=O)c1ccc(F)c(F)c1
3. CN(Cc1ccc(OCC(=O)O)c(-c2ccc3nonc3c2)c1)S(=O)(=O)c1ccc(F)cc1
4. CN(Cc1cc(-c2cc(F)cc(C#N)c2)c(OCC(=O)O)cc1F)S(=O)(=O)c1ccc(F)c(Cl)c1
5. COc1cc(F)cc(-c2cc(CN(C)S(=O)(=O)c3ccc(F)c(F)c3)ccc2OCC(=O)O)c1

["> 7.00", "> 7.00", "> 7.00", "> 7.00", "> 7.00"]
